In this section, each of the molecules is paired with its reported growth.
- Tested on: ACHN renal
- MEASUREMENT_PROTOCOL: NCI-60 one-dose screen, 48 h (100 = growth as untreated, 0 = no growth, -100 = all killed)
- PROTOCOL_CONDITIONS: 10 µM unless noted
The panel holds about 83,000 compounds, 20% with a hit somewhere; the sample as a whole holds those more often.
Write down the numeric answer in % and omit the unit.

* NC(=S)c1csc(CCNC(=O)c2ccccc2)n1 | 105
* N#Cc1c(-c2ccc(C(F)(F)F)cc2)cc(N2CC(O)C2)n2c1nc1ccccc12 | 43.4
* COc1ccc(/C(C)=N/NS(=O)(=O)c2ccc(C)cc2)cc1OC | 103

Could you now look at the following molecule, please?
Enquiry: For the molecule O=C(/C=C/C12c3ccccc3C(c3ccccc31)C1C(=O)NC(=O)C12)c1ccccc1 (stereo unspecified) , give its measured growth value.
Return: 32.7
